Where a name gives a salt, the structure may show the parent alone.
metric.name: melting point

1) CCCC(C(=O)c1ccc(Cl)c(Cl)c1)N1CCCC1 (stereo not shown) (as salt: salt) [Compound O-2390]	195 °C (dec.)
2) CCC(CC(=O)c1ccc(Cl)c(Cl)c1)N1CCCC1 (stereo not shown) (as salt: salt)	104 to 107 °C (dec.)
3) CCCC(C(=O)c1ccc(CO)cc1)N1CCCC1 (stereo not shown) (as salt: salt)	186 to 187 °C (dec.)
4) CCCC(C(=O)c1ccc(NC(C)=O)cc1)N1CCCC1 (stereo not shown) (as salt: salt)	195 °C (dec.)
5) CCCC(C(=O)c1ccc(C(=O)OC)cc1)N1CCCC1 (stereo not shown) (as salt: salt)	202 °C (dec.)
6) CCCC(C(=O)c1ccc(I)cc1)N1CCCC1 (stereo not shown) (as salt: salt)	218 °C (dec.)
7) C=CCC(C(=O)c1ccc(C)cc1)N1CCCC1 (stereo not shown) (as salt: salt)	196 °C (dec.)
8) CCCC(C(=O)c1ccc(C#N)cc1)N1CCCC1 (stereo not shown) (as salt: salt)	197 to 199 °C (dec.)
9) CCCC(C(=O)c1ccc2ccccc2c1)N1CCCC1 (stereo not shown) (as salt: salt)	221 to 223 °C (dec.)
10) CCCC(C(=O)c1ccc(O)c(O)c1)N1CCCC1 (stereo not shown) (as salt: salt)	181 to 182 °C
